# EC50 values compiled below
Test system: SH-SY5Y
Test: Neuroprotection against L-glutamic acid-induced cell death in human SH-SY5Y cells assessed as increase in cell viability preincubated for 1 hr followed by L-glutamic acid addition and measured after 24 hrs by MTT assay
Assay type: functional, cell-based

Below are worked cases with known answers.
Cc1cc(O)cc2oc(=O)c(C(=O)CCN(C)C)cc12 = 25.7 µM
Cc1cc(O)cc2oc(=O)c(C(=O)CCN3CCCCC3)cc12 = > 100 µM
Cc1cc(O)cc2oc(=O)c(C(=O)CCN3CCOCC3)cc12 = > 100 µM

What measured EC50 goes with `O=C(CCN1CCOCC1)c1cc2ccc(O)cc2oc1=O` ?
22.9 µM

Ok, now `O=C(CCN1CCCCC1)c1cc2ccc(O)cc2oc1=O`
45.4 µM
